A collection of binders and their measured OD650 in inhibition assay
Biological target: T1, human Angiopoietin-2 (human, UniProt O15123 19-496)
T1 construct: Mostly bought recombinant protein (R&D Systems 623-AM/CF, 623-AN; biotinylated BT623) or supernatant of transfected 293F cells; also called Ang-2; rhAng-2
T1 sequence: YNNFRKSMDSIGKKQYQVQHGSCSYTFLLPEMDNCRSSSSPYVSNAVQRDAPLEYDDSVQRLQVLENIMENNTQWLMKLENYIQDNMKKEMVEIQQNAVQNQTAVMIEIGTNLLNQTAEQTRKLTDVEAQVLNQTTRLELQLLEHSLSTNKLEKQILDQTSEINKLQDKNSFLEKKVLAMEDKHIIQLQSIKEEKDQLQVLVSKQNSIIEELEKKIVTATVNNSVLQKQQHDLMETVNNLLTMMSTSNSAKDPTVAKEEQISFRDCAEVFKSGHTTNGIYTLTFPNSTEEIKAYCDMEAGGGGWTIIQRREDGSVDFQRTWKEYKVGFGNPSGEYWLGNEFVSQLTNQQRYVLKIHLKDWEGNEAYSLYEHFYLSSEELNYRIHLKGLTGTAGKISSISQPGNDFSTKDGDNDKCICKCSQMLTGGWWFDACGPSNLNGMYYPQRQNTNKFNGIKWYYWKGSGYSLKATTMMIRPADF
Assay: inhibition of rhAng-2 binding to its receptor; note: test concentration or dose not given here
Use OD650 as the unit, but write only the number.

binder	OD650 in inhibition assay (OD650)
mAb 5.13.1 (antibody, V domains shown, Human hybridoma IgG (XenoMouse); also called x5.13) VH: EVQLVESGGGLVQPGGSLRLSCAASGFTFSSYWMSWVRQAPGKGLEWVANIKQDGSEKYYVDSVKGRFTISRDNAKNSLYLQMNSLRAEDTAVYYCARDPGIAVAGPFDYWGQGTLVTVSS VL: EIVMTQSPATLSVSPGERATLSCRASQSVSSNLAWYQQKPGQAPRLLIYGASTRATGIPARFSGSGSGTEFTLTISSLQSEDFAVYYCQQYNHWWTFGQGTKVEIKR	0.0744
mAb 5.88.3 (antibody, V domains shown, Human hybridoma IgG (XenoMouse); also called x5.88) VH: EVQMVESGGGLVQPGGSLRLSCAASGFTLRSYWMSWVRQAPGKGLEWVANIKEDGSEKYHVDSVKGRFTISRDNAENSLFLQMSSLRAEDTAVYYCARDMEASAGLFDYWGQGTLVTVSS VL: EIVMTQSPATLSVSPGERAILSCRASQSISSNLAWYQQKPGQAPRLLIYGASTRATGIPARFSGSGSGTEFTLTISSLQSEDFAVYYCQQYNYWWTFGQGTKVEIKR	0.0874
mAb 3.19.3 (antibody, V domains shown, Human hybridoma IgG (XenoMouse); also called x3.19) VH: QVQLVESGGGVVQPGRSLRLSCAASGFTFTNYGMHWGRQAPGKGLEWVAVISHDGNNKYYVDSVKGRFTISRDNSKNTLYLQMNSLRAEDTAVYYCAREGIDFWSGLNWFDPWGQGTLVTVSS VL: EIVLTQSPGTLSLSPGERATLSCRASQSITGSYLAWYQQKPGQAPRLLICGASSWATGIPDRFSGSGSGTDFTLTISRLEPEDFAVYYCQQYSSSPITFGQGTRLEIKR	0.0633
mAb 5.108.1 (antibody, V domains shown, Human hybridoma IgG (XenoMouse); also called x5.108) VH: QVQLVESGGGVVQPGRSLRLSCAASGFTFSSYGMHWVRQAPGKGLEWVAVIWYDGSNKYYADSVKGRFTISRDNSKNTLYLQMNSLRAEDTAMYYCARELALWGQGTLVTVSS VL: EIVMTQSPATLSVSPGERATLSCRASQSVSSYLAWYQQKPGQAPRLLIYGAFTRATGIPARFRGSGSGPEFTLTISSLQSEDFAVYYCQQYSHWWTFGQGTKVEIKR	0.0688

Attention now turns to another entry.
input: Recorded OD650 in inhibition assay of mAb 5.39.1 (antibody, V domains shown, Human hybridoma IgG (XenoMouse); also called x5.39) VH: QVQLVQSGAEVTKPGASVKVSCKASGYTFTAYHMYWVRQAPGQGLEWMGWINPNSGGTNYAQKFQGRVTMTRDTSISTAYMELSRLRSDDSPVYYCARDQGIAAAGPFDYWGQGTLVTVSS VL: EIVMTQSPATLSVSPGDRATLSCRASQSVSSNFAWYQQKPGQAPRLLIYGSSTRATGIPARFSGSGSGTEFTLTISSLQSEDFAVYYCQQYHYWWTFGQGTKVEFKR , please.
output: 0.0519
